Assay: chemical genetic growth profiling, strain panel (AID 1159580);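 note: tested at 20 µM; growth read once vehicle control cultures reached saturation at 30 °C; lower values mean less growth of the strain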
Conditions: S. cerevisiae strains, growth OD, strain wild type
Screen size: about 5,500 compounds; about 2,000 (36%) were called active. About 18% were inconclusive and are not listed. Cut-off read from the data, not from the text of the source: active = normalized growth mostly below about 0.91 (no sharp cut-off); inconclusive = no clear call, values can overlap the other calls; inactive = mostly above about 0.92. Some of the results follow.
Outcome codes: active, inactive

[
  {
    "molecule": "COc1cc2c(cc1-c1cc3cc4ccoc4cc3oc1=O)OCO2",
    "groupLabel": "inactive"
  },
  {
    "molecule": "CN(C)C(=O)Nc1ccc(Cl)c(Cl)c1",
    "groupLabel": "inactive"
  },
  {
    "molecule": "CC1(C)C(O)CC(O)C2(C)C1CC(O)C1(C)C2CCC2(C)C(c3ccoc3)OC(=O)C3OC321 (stereo not given)",
    "groupLabel": "inactive"
  },
  {
    "molecule": "NC(N)=NCCC[C@@H](NC(=O)[C@@H](N)Cc1ccc(O)cc1)C(=O)O",
    "groupLabel": "inactive"
  },
  {
    "molecule": "CSc1ccc2c(c1)N(CCC1CCCCN1C)c1ccccc1S2 (stereo not given)",
    "groupLabel": "active"
  },
  {
    "molecule": "COc1ccc(CNc2ccccc2-c2nc3ccccc3[nH]2)cc1",
    "groupLabel": "active"
  },
  {
    "molecule": "CC(=O)OCC(=O)[C@@]1(O)[C@H](OC(C)=O)CC2C3CCC4=CC(=O)C=C[C@]4(C)[C@@]3(F)[C@@H](O)C[C@@]21C (stereo not given in full)",
    "groupLabel": "inactive"
  },
  {
    "molecule": "COc1c2ccoc2nc2c(OC)c(OCC(O)C(C)(C)O)ccc12 (stereo not given)",
    "groupLabel": "inactive"
  },
  {
    "molecule": "N[C@@H](Cc1cc(I)c(Oc2ccc(O)c(I)c2)c(I)c1)C(=O)O",
    "groupLabel": "inactive"
  },
  {
    "molecule": "N[C@H](Cc1ccccc1)C(=O)O",
    "groupLabel": "inactive"
  }
]
